Would you mind telling me the reported inhibition at 10 µM of each entry?
target: SIRT7 protein (Homo sapiens); construct: purchased SignalChem S41-30H; assay: SIRT Glo assay, inhibitory activity against Sirt7; type: biochemical; conditions: 10 μM compound
Sequence (Q9NRC8 whole entry): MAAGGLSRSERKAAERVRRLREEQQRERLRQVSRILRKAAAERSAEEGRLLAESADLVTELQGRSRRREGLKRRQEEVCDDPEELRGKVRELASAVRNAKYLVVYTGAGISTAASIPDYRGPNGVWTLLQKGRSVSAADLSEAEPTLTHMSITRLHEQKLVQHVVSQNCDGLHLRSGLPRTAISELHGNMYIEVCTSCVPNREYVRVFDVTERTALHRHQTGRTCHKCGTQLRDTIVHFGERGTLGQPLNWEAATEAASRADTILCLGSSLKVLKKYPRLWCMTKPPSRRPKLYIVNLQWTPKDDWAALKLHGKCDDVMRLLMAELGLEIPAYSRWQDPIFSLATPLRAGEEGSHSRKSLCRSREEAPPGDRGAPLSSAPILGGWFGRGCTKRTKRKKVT
# value in %; strip the unit string

[Q] Identify measured inhibition at 10 µM corresponding to O=C(Nc1nc2ccccc2s1)c1ccc(CN2CCN(C(=O)Nc3ccccc3)CC2)cc1 [Compound 1-38]
[A] 98

[Q] Identify measured inhibition at 10 µM corresponding to Cc1cc(C)cc(NC(=O)N2CCN(Cc3ccc(C(=O)Nc4nc5ccccc5s4)cc3)CC2)c1 [Compound 1-47]
[A] 88

[Q] Identify measured inhibition at 10 µM corresponding to O=C(Nc1nc2ccccc2s1)c1c(F)cc(C=C2CCN(C(=O)Nc3ccccc3)CC2)cc1F [Compound 1-101]
[A] 100

[Q] Identify measured inhibition at 10 µM corresponding to CC(C)NC(=O)N1CCC(=Cc2ccc(C(=O)Nc3nc4ccccc4s3)c(F)c2)CC1 [Compound 1-94]
[A] 98

[Q] Identify measured inhibition at 10 µM corresponding to CCNC(=O)N1CCC(=Cc2ccc(C(=O)Nc3nc4ccccc4s3)c(Cl)c2)CC1 [Compound 1-105]
[A] 100

====

molecular target: SIRT7 protein (Homo sapiens); construct: purchased SignalChem S41-30H; assay: SIRT Glo assay, inhibitory activity against Sirt7; assay type: biochemical; details: 10 μM compound
Note to self: values exactly at 80% are label 1. So inhibition at 10 µM at or above 80% is label 1, below is label 0.

[Q] # bool: inhibition at 10 µM of Cc1ccc(Oc2cccc(C(=O)Nc3nc4ccccc4[nH]3)c2)nn1 >= 80%
[A] label 0

[Q] # bool: inhibition at 10 µM of Cn1c(NC(=O)c2ccc(CN3CCN(C(=O)OC(C)(C)C)CC3)cc2)nc2ccccc21 >= 80%
[A] label 0

[Q] # bool: inhibition at 10 µM of CCS(=O)(=O)N1CCC(=Cc2ccc(C(=O)Nc3nc4ccccc4s3)c(F)c2)CC1 >= 80%
[A] label 0

[Q] # bool: inhibition at 10 µM of O=C(Nc1nc2ccccc2s1)c1ccc(CN2CCN(C(=O)Nc3ccccc3Br)CC2)cc1 >= 80%
[A] label 1

[Q] # bool: inhibition at 10 µM of O=C(Nc1nc2ccccc2s1)c1ccc(C=C2CCN(C(=O)Nc3ccccc3)CC2)cc1Cl >= 80%
[A] label 1

[Q] # bool: inhibition at 10 µM of Cc1ccc(Oc2ccc(C(=O)Nc3nc4ccccc4s3)cc2)nn1 >= 80%
[A] label 0

[Q] # bool: inhibition at 10 µM of CCc1cnc(Oc2ccc(C(=O)Nc3nc4ccccc4[nH]3)cc2)nc1 >= 80%
[A] label 0
